Cited source: patent US5250548A

Hi there, I'd appreciate the recorded Kb for every entry that follows.
- STUDY TARGET: angiotensin II receptor (Oryctolagus cuniculus, UniProt P34976)
- Construct: Main abdominal aortas were removed and placed in Krebs-Henseleit buffer; from tissue; host or cells: main abdominal aorta rings (3 mm) of female New Zealand White rabbits
- Sequence (P34976 whole entry): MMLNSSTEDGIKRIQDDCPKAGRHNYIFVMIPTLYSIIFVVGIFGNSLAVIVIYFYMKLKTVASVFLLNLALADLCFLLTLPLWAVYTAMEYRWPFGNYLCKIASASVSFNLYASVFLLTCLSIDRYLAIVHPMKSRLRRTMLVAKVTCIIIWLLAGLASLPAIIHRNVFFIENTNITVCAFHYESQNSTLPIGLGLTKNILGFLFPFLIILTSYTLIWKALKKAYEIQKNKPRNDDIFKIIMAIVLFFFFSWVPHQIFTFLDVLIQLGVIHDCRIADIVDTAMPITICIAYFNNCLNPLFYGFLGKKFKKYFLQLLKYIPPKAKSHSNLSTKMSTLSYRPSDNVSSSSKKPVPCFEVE
- MEASUREMENT NOTES: Angiotensin II functional assay: antagonism of contraction of rabbit aorta (isolated tissue, Schild analysis)
- Set-up: species or system rabbit (female New Zealand White)
- PROTOCOL CONDITIONS: antagonist incubated 30 minutes, negative logarithm of antagonist concentration that requires doubling of the angiotensin II concentration, read-out: pA2 (converted)
One number for each entry, in nM.

Below, each entry is followed by its recorded Kb result.
CCCCN(Cc1ccc(-c2ccccc2-c2nn[nH]n2)cc1)c1ncc(C(=O)O)cn1 | 3.31
CCCN(Cc1ccc(-c2ccccc2-c2nn[nH]n2)cc1)c1nc(C(F)(F)F)ncc1C(=O)O | 1.62

# get_value(readout= Kb, system= angiotensin II receptor (Oryctolagus cuniculus, UniProt P34976)) for `CCCCN(Cc1ccc(-c2ccccc2-c2nn[nH]n2)cc1)c1nnccc1C(=O)O` 0.0891
